target: TGF-beta receptor type-1 (Homo sapiens, UniProt P36897); test: Inhibition of human ALK5 expressed in Sf9 insect cells using casein as substrate in presence of [gamma-33P]ATP
Sequence (P36897 whole entry): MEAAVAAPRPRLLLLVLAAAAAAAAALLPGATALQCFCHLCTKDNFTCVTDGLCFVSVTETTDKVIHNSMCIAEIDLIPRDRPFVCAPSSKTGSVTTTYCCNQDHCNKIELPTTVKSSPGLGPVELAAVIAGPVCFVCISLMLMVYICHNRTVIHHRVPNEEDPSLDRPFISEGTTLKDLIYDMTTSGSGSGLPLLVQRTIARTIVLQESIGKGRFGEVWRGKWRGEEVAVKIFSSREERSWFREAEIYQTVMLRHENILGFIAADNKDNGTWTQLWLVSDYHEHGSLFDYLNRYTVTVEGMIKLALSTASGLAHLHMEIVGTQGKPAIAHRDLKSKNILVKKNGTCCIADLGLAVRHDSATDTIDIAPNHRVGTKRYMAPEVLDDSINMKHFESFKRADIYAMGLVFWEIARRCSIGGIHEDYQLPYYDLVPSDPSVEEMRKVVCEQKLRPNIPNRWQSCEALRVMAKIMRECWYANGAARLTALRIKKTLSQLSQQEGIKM
Task for the reader: assign each of the following molecules its reported IC50.
Provide the reading as a plain figure in nM.

Q: What IC50 value was documented for this molecule, CCc1cccc(-c2nn3c(c2-c2ccnc(Cl)c2)C(C)C(C)(C)C3)n1 (stereo not given) ?
A: 2740

Q: What IC50 value was documented for this molecule, CC1c2c(-c3ccncc3)c(-c3ccccc3C#N)nn2CC1(C)C (stereo not given) ?
A: 1290

Q: What IC50 value was documented for this molecule, CCc1cccc(-c2nn3c(c2-c2ccc(OC)cc2)C(C)C(C)(C)C3)n1 (stereo not given) ?
A: 805

Q: What IC50 value was documented for this molecule, Cc1cccc(-c2nn3c(c2-c2ccnc(Nc4ccc(S(N)(=O)=O)cc4)c2)C(C)C(C)(C)C3)n1 (stereo not given) ?
A: 154

Q: What IC50 value was documented for this molecule, CCc1cccc(-c2nn3c(c2-c2ccc(O)cc2)C(C)C(C)(C)C3)n1 (stereo not given) ?
A: 98

Q: What IC50 value was documented for this molecule, "CC1(C)Cc2c(-c3ccc(O)cc3)c(-c3ccccn3)nn2C1" ?
A: 1990

Q: What IC50 value was documented for this molecule, Cc1cccc(-c2nn3c(c2-c2ccnc(Cl)c2)C(C)C(C)(C)C3)n1 (stereo not given) ?
A: 517

Q: What IC50 value was documented for this molecule, Cc1cccc(-c2nn3c(c2-c2ccncc2)C(C)C(C)(C)C3)n1 (stereo not given) ?
A: 181

Q: What IC50 value was documented for this molecule, "CC1(C)Cc2c(-c3ccncc3)c(-c3ccccc3C#N)nn2C1" ?
A: 2520

Q: What IC50 value was documented for this molecule, "Cc1cccc(-c2nn3c(c2-c2ccc(O)cc2)[C@@H](C)C(C)(C)C3)n1" ?
A: 197

====

biological target: Tyrosine-protein kinase ABL1 (Mus musculus, UniProt P00520); assay: biochemical
Sequence (P00520 whole entry): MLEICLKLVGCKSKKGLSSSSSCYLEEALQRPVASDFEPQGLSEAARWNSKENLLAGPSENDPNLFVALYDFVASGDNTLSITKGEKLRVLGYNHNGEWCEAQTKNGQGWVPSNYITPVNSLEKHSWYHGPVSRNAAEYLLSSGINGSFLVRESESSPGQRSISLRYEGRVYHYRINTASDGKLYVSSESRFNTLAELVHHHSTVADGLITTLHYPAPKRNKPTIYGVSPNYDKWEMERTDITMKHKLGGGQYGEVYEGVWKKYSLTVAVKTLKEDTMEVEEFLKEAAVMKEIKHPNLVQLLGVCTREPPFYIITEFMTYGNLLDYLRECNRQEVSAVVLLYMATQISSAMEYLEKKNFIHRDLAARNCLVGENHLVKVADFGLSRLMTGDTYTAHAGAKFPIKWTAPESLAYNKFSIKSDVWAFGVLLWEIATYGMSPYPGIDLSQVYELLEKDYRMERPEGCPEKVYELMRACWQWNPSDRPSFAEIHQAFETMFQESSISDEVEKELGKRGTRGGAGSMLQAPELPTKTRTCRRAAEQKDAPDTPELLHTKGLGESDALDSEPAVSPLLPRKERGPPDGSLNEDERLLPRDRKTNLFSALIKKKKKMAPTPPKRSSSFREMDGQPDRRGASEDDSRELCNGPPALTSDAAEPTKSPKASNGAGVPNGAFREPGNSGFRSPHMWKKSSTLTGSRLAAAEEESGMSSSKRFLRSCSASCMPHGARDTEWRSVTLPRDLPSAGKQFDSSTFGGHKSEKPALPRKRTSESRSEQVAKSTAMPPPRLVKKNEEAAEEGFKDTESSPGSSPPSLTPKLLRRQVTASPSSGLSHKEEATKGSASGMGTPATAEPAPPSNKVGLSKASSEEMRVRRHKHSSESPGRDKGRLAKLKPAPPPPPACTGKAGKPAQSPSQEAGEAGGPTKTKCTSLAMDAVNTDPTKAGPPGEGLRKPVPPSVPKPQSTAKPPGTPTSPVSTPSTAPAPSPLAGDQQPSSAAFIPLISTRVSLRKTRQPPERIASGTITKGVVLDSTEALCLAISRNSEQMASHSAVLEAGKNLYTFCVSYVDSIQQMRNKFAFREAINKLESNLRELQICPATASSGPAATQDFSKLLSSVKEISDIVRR
experimental_endpoint: IC50

Q: What IC50 value was documented for this molecule, Cc1cccc(-c2nn3c(c2-c2ccncc2)C(C)C(C)(C)C3)n1 (stereo unspecified) ?
A: 21 µM

Q: What IC50 value was documented for this molecule, CC1c2c(-c3ccncc3)c(-c3ccccc3C#N)nn2CC1(C)C (stereo unspecified) ?
A: 11 µM

Q: What IC50 value was documented for this molecule, COc1ccc(-c2c(-c3cccc(C)n3)nn3c2C(C)C(C)(C)C3)cc1 (stereo unspecified) ?
A: > 100 µM

Q: What IC50 value was documented for this molecule, "CC1(C)Cc2c(-c3ccncc3)c(-c3ccccn3)nn2C1" ?
A: > 50 µM

Q: What IC50 value was documented for this molecule, CCc1cccc(-c2nn3c(c2-c2ccc(OC)cc2)C(C)C(C)(C)C3)n1 (stereo unspecified) ?
A: > 100 µM

Q: What IC50 value was documented for this molecule, "Cc1cccc(-c2nn3c(c2-c2ccncc2)CC(C)(C)C3)n1" ?
A: 26 µM

====

biological target: TGF-beta receptor type-1 (Homo sapiens, UniProt P36897); assay: Inhibition of human ALK5 expressed in Sf9 insect cells using casein as substrate in presence of [gamma-33P]ATP
pIC50: −log10 of the molar value.
Returns one of Criterion met or Criterion not met; Criterion met when pIC50 is >= 6.

Q: Evaluate "Cc1cccc(-c2nn3c(c2-c2ccnc(Nc4ccc(S(N)(=O)=O)cc4)c2)CC(C)(C)C3)n1" : pIC50 at minimum 6?
A: Criterion met

Q: Evaluate "CCc1cccc(-c2nn3c(c2-c2ccc(O)cc2)[C@H](C)C(C)(C)C3)n1" : pIC50 at minimum 6?
A: Criterion met

Q: Evaluate CCc1cccc(-c2nn3c(c2-c2ccnc(Nc4ccc(S(N)(=O)=O)cc4)c2)C(C)C(C)(C)C3)n1 (centres undefined) : pIC50 at minimum 6?
A: Criterion met

Q: Evaluate CCc1cccc(-c2nn3c(c2-c2ccncc2)C(C)C(C)(C)C3)n1 (centres undefined) : pIC50 at minimum 6?
A: Criterion met

Q: Evaluate "CC1(C)Cc2c(-c3ccncc3)c(-c3ccccn3)nn2C1" : pIC50 at minimum 6?
A: Criterion not met

Q: Evaluate "Cc1cccc(-c2nn3c(c2-c2ccncc2)CC(C)(C)C3)n1" : pIC50 at minimum 6?
A: Criterion met

Q: Evaluate "Cc1cccc(-c2nn3c(c2-c2ccc(O)cc2)CC(C)(C)C3)n1" : pIC50 at minimum 6?
A: Criterion met

Q: Evaluate Cc1cccc(-c2nn3c(c2-c2ccncc2)C(C)C(C)(C)C3)c1C#N (centres undefined) : pIC50 at minimum 6?
A: Criterion met

Q: Evaluate CC1c2c(-c3ccc(O)cc3)c(-c3ccccc3C#N)nn2CC1(C)C (centres undefined) : pIC50 at minimum 6?
A: Criterion not met

Q: Evaluate COc1ccc(-c2c(-c3cccc(C)n3)nn3c2C(C)C(C)(C)C3)cc1 (centres undefined) : pIC50 at minimum 6?
A: Criterion met

Q: Evaluate Cc1cccc(-c2nn3c(c2-c2ccc(O)cc2)C(C)C(C)(C)C3)n1 (centres undefined) : pIC50 at minimum 6?
A: Criterion met

====

Task for the reader: assign each of the following compounds its reported log10(IC50).
molecular target: UniProtKB P36897; assay: Inhibition of human ALK5 expressed in Sf9 insect cells using casein as substrate in presence of [gamma-33P]ATP
Plainly stated, the numbers are log10 of IC50 given in nM.

Q: Lab request: please report log10(IC50) under test system UniProtKB P36897 for Cc1cccc(-c2nn3c(c2-c2ccc(O)cc2)C(C)C(C)(C)C3)c1C#N (stereo not given)
A: 2.53

Q: Lab request: please report log10(IC50) under test system UniProtKB P36897 for Cc1cc(-c2c(-c3cccc(C)n3)nn3c2C(C)C(C)(C)C3)ccn1 (stereo not given)
A: 2.74

Q: Lab request: please report log10(IC50) under test system UniProtKB P36897 for "CCc1cccc(-c2nn3c(c2-c2ccc(O)cc2)[C@@H](C)C(C)(C)C3)n1"
A: 2.42

Q: Lab request: please report log10(IC50) under test system UniProtKB P36897 for "Cc1cccc(-c2nn3c(c2-c2ccc(O)cc2)[C@H](C)C(C)(C)C3)n1"
A: 1.99

Q: Lab request: please report log10(IC50) under test system UniProtKB P36897 for CCOC(=O)c1ccc(-c2c(-c3cccc(C)n3)nn3c2C(C)C(C)(C)C3)cc1 (stereo not given)
A: 3.30

====

biological target: UniProt P00520; test: biochemical
experimental_endpoint: IC50 (µM)
Provide the reading as a plain figure in µM.

Q: Lab request: please report IC50 under test system UniProt P00520 for "Cc1cccc(-c2nn3c(c2-c2ccc(O)cc2)CC(C)(C)C3)n1"
A: 20

Q: Lab request: please report IC50 under test system UniProt P00520 for Cc1cccc(-c2nn3c(c2-c2ccnc(Nc4ccc(S(N)(=O)=O)cc4)c2)C(C)C(C)(C)C3)n1 (stereo not drawn)
A: 0.55

====

target: Tyrosine-protein kinase ABL1 (Mus musculus, UniProt P00520); experiment: biochemical
Task for the reader: assign each of the following compounds its reported pIC50.
pIC50 field: float, defined as -log10 of concentration (mol/L).

Q: Lab request: please report pIC50 under test system Tyrosine-protein kinase ABL1 (Mus musculus, UniProt P00520) for Cc1cccc(-c2nn3c(c2-c2ccc(O)cc2)C(C)C(C)(C)C3)n1 (stereo unspecified)
A: 4.18

Q: Lab request: please report pIC50 under test system Tyrosine-protein kinase ABL1 (Mus musculus, UniProt P00520) for CCc1cccc(-c2nn3c(c2-c2ccnc(Nc4ccc(S(N)(=O)=O)cc4)c2)C(C)C(C)(C)C3)n1 (stereo unspecified)
A: 5.17

Q: Lab request: please report pIC50 under test system Tyrosine-protein kinase ABL1 (Mus musculus, UniProt P00520) for "CC1(C)Cc2c(-c3ccncc3)c(-c3ccccc3C#N)nn2C1"
A: 4.70

Q: Lab request: please report pIC50 under test system Tyrosine-protein kinase ABL1 (Mus musculus, UniProt P00520) for Cc1cccc(-c2n[nH]cc2-c2ccc3ncccc3n2)n1 [GW786460X]
A: 4.68

Q: Lab request: please report pIC50 under test system Tyrosine-protein kinase ABL1 (Mus musculus, UniProt P00520) for "Cc1cccc(-c2nn3c(c2-c2ccnc(Nc4ccc(S(N)(=O)=O)cc4)c2)CC(C)(C)C3)n1"
A: 5.60

Q: Lab request: please report pIC50 under test system Tyrosine-protein kinase ABL1 (Mus musculus, UniProt P00520) for COCC1c2c(-c3ccncc3)c(-c3cccc(C)n3)nn2CC1(C)C (stereo unspecified)
A: 4.60

Q: Lab request: please report pIC50 under test system Tyrosine-protein kinase ABL1 (Mus musculus, UniProt P00520) for Cc1cccc(-c2nn3c(c2-c2ccncc2)C(CO)C(C)(C)C3)n1 (stereo unspecified)
A: 4.03

Q: Lab request: please report pIC50 under test system Tyrosine-protein kinase ABL1 (Mus musculus, UniProt P00520) for Cc1cc(-c2c(-c3cccc(C)n3)nn3c2C(C)C(C)(C)C3)ccn1 (stereo unspecified)
A: 4.60

Q: Lab request: please report pIC50 under test system Tyrosine-protein kinase ABL1 (Mus musculus, UniProt P00520) for Cc1cccc(-c2nn3c(c2-c2ccncc2)C(C)C(C)(C)C3)c1C#N (stereo unspecified)
A: 5.19

Q: Lab request: please report pIC50 under test system Tyrosine-protein kinase ABL1 (Mus musculus, UniProt P00520) for CCc1cccc(-c2nn3c(c2-c2ccncc2)C(C)C(C)(C)C3)n1 (stereo unspecified)
A: 4.37
